From: ChEMBL document CHEMBL1130096

# Method Summary: hypoxic cytotoxic ratios (HCR) of the concentration required to kill 50% of the aerobic cells and concentration required to kill hypoxic cells
# Experimental Parameters: read-out: HCR
Measured Endpoint: selectivity ratio
Provide a numeric answer; units are not to be included.

Ask | What selectivity ratio value was documented for this compound, "Cc1c2c(n(C)c1C(C)C)C(=O)C=C(N1CC1)C2=O" ?
Reply | 1.77

###

# Test system: V79
# Method Summary: In vitro concentration required to kill hypoxic cells V79-379A cells
# Format: functional, Cricetulus griseus
Examples of compounds with documented log10(C50) follow.
For clarity, the numbers are log10 values of C50 expressed in µM.

CC1CN1C1=CC(=O)c2c(c(CO)c(C3CC3)n2C)C1=O (stereo unspecified) : 0.75
Cn1c(/C=C/CO)c(CO)c2c1C(=O)C=C(N1CC1)C2=O : -2.42
Cn1c2c(c(CO)c1C1CC1)C(=O)C(N1CC1)=CC2=O : -2.24

From here, focus on the item given below.
Ask | Could you share what log10(C50) was measured for "COC(=O)c1c2c(n(C)c1C1CC1)C(=O)C=C(N1CC1)C2=O" , tested on V79?
Reply | -0.03

###

# Test system: V79
# Method Summary: In vitro concentration required to kill hypoxic cells V79-379A cells
# Type: functional, Cricetulus griseus
Measured Endpoint: C50 (µM)
Express your answer in µM, writing the number without its unit.

// worked examples, C50 included
COC1=CC(=O)c2c(c(COC(N)=O)cn2C)C1=O : 0.037
Cn1c2c(c(COC(N)=O)c1C1CC1)C(=O)C(N1CC1)=CC2=O : 0.074
O=C1C(N2CC2)=CC(=O)c2c1c(CO)c1n2CC2CC12 (configuration not stated) : 0.073
NC(=O)OCc1c2c(n3c1C1CC1C3)C(=O)C=C(N1CC1)C2=O (configuration not stated) : 0.003
COC1=CC(=O)c2c(c(CO)cn2C)C1=O : 240

Ask | Tell me the measured C50 of CC1CN1C1=CC(=O)c2c(c(COC(N)=O)c(C3CC3)n2C)C1=O (configuration not stated) , please.
Reply | 0.459

Ask | What value of C50 has been recorded for this entry: "Cn1cc(CO)c2c1C(=O)C=C(N1CC1)C2=O"
Reply | 0.0086

Ask | Entry "COC1=CC(=O)c2c(c(CO)c(C3CCCCC3)n2C)C1=O" has what C50?
Reply | 20.5

Ask | Which C50 is reported for this compound? COC1=CC(=O)c2c(c(CO)c3n2CC2CC32)C1=O (configuration not stated)
Reply | 60.6

###

Overview of recorded C50 for various molecules
# Test system: V79
# Method Summary: In vitro concentration required to kill hypoxic cells V79-379A cells
# Assay type: functional, Cricetulus griseus
Please give a number only; it is taken to be in µM.

COC(=O)c1c2c(n(C)c1C1CC1)C(=O)C=C(OC)C2=O : 59.8
CC(C)c1c(COC(N)=O)c2c(n1C)C(=O)C=C(N1CC1C)C2=O (stereo not drawn) : 0.87
CC(C)c1c(COC(N)=O)c2c(n1C)C(=O)C=C(N1CC1)C2=O : 5.46

Ask | Look up C50: "CC(C)c1c(CO)c2c(n1C)C(=O)C=C(N1CC1)C2=O"
Reply | 0.79

Ask | Please give the measured C50 for this molecule: "COC1=CC(=O)c2c(c(CO)c(C3CC3)n2C)C1=O"
Reply | 820

Ask | Which value of C50 has been reported for "COC(=O)c1c2c(n(C)c1C(C)C)C(=O)C=C(OC)C2=O" in the records?
Reply | 150

Ask | // query C50 value for entry CC(C)c1c(CO)c2c(n1C)C(=O)C=C(N1CC1C)C2=O (stereo not drawn)
Reply | 13.9

Ask | Item under review: "COC1=CC(=O)c2c(c(CO)c(C)n2C)C1=O" . Reported C50?
Reply | 284.8
